This section presents compounds with their documented IC50 values.
test system: RS4;11 (BCL-2 dependent acute lymphoblastic leukemia cell line); assay: RS4;11 Cell Proliferation Assay; assay type: cell-based; settings: Homo sapiens, RS4-11, RS4;11 cells, read-out: Cellular proliferation assay (IC50, nM) RS4
// return numeric value only (unit: nM, not printed)

CC(C)c1ccccc1[C@@H]1CN(Cc2ccc3c(c2)OCC3)CCN1C1CC2(CCN(c3ccc(C(=O)NS(=O)(=O)c4ccc(NC[C@H]5CC[C@](C)(O)CC5)c([N+](=O)[O-])c4)c(Oc4cnc5[nH]ccc5c4)c3)CC2)C1 ... 0.3
CC(C)c1ccccc1[C@@H]1CN(Cc2ccc3c(c2)OCC3(C)C)CCN1C1CC2(C1)CN(c1ccc(C(=O)NS(=O)(=O)c3ccc(NC[C@H]4CC[C@](C)(O)CC4)c([N+](=O)[O-])c3)c(Oc3cnc4[nH]cc(F)c4c3)c1)C2 ... 0.42
COc1ccc(CN2CCN(C3CC4(CCN(c5ccc(C(=O)NS(=O)(=O)c6ccc(NC[C@H]7CC[C@](C)(O)CC7)c([N+](=O)[O-])c6)c(Oc6cnc7[nH]ccc7c6)c5)CC4)C3)C(c3ccccc3C(C)C)C2)cc1C (some centres unmarked) ... 0.463
CC(C)c1ccccc1[C@@H]1CN(Cc2ccc(OC3CC3)cc2)CCN1C1CC2(C1)CN(c1ccc(C(=O)NS(=O)(=O)c3ccc(NC[C@H]4CC[C@](C)(O)CC4)c([N+](=O)[O-])c3)c(Oc3cnc4[nH]cc(F)c4c3)c1)C2 ... 0.12
CC(C)c1ccccc1[C@@H]1CN(Cc2cccc3c2OCC(C)(C)O3)CCN1C1CC2(C1)CN(c1ccc(C(=O)NS(=O)(=O)c3ccc(NC[C@H]4CC[C@](C)(O)CC4)c([N+](=O)[O-])c3)c(Oc3cnc4[nH]cc(F)c4c3)c1)C2 ... 0.18

Report IC50 for COc1ccc(CN2CCN(C3CC4(CCN(c5ccc(C(=O)NS(=O)(=O)c6ccc(NC[C@H]7CC[C@](C)(O)CC7)c([N+](=O)[O-])c6)c(Oc6cnc7[nH]ccc7c6)c5)CC4)C3)C(c3ccccc3C(C)C)C2)cc1OC1CC1 (some centres unmarked) tested on RS4;11 (BCL-2 dependent acute lymphoblastic leukemia cell line).
0.53

Would you mind doing COc1cc(CN2CCN(C3CC4(C3)CN(c3ccc(C(=O)NS(=O)(=O)c5ccc(NC[C@H]6CC[C@](C)(O)CC6)c([N+](=O)[O-])c5)c(Oc5cnc6[nH]cc(F)c6c5)c3)C4)[C@H](c3ccccc3C(C)C)C2)ccc1C1CCOCC1 as well?
0.11

Would you mind doing COc1cc(CN2CCN(C3CC4(C3)CN(c3ccc(C(=O)NS(=O)(=O)c5ccc(NC[C@H]6CC[C@](C)(O)CC6)c([N+](=O)[O-])c5)c(Oc5cnc6[nH]cc(F)c6c5)c3)C4)[C@H](c3ccccc3C(C)C)C2)cnc1OC as well?
0.39

The measurements presented in this section are drawn from patent US20240376097A1.
